Tested on: MRC5
assay-comment: Cytotoxicity against human MRC5 cells assessed as cell growth inhibition after 72 hrs by MTS assay
Assay type: cell-based
experimental-context: MRC5, 72 h
parameter: IC50

Worked examples, 6 compounds total:
| smiles-record | parameter | result-value |
| --- | --- | --- |
| Cc1ncnc2c1c1ccsc1n2[C@@H]1O[C@H](CO)[C@@H](O)[C@H]1O | IC50 | > 50 µM |
| OC[C@H]1O[C@@H](n2c3ccsc3c3c(-c4ccoc4)ncnc32)[C@H](O)[C@@H]1O | IC50 | > 50 µM |
| OC[C@H]1O[C@@H](n2c3ncnc(-c4ccoc4)c3c3ccsc32)[C@H](O)[C@@H]1O | IC50 | > 50 µM |
| CSc1ncnc2c1c1ccsc1n2[C@@H]1O[C@H](COP(=O)([O-])O)[C@@H](O)[C@H]1O.[Na+] | IC50 | > 50 µM |
| COc1ncnc2c1c1ccsc1n2[C@@H]1O[C@H](CO)[C@@H](O)[C@H]1O | IC50 | > 50 µM |
| OC[C@H]1O[C@@H](n2c3ccsc3c3c(-c4ccco4)ncnc32)[C@H](O)[C@@H]1O | IC50 | > 50 µM |

Pending compound:
The reported IC50 of the compound `Nc1ncnc2c1c1ccsc1n2[C@@H]1O[C@H](CO)[C@@H](O)[C@H]1O` was > 50 µM

Cited source: ChEMBL document CHEMBL4007430
